Ref: ChEMBL document CHEMBL1152305

# EXPERIMENT: Inhibition of human recombinant ribonucleotide reductase expressed in BL21 (DE3) bacteria assessed as conversion of [3H]CDP to [3H]dCDP
pIC50: −log10 of the molar value.
PARAMETER_MEASURED: pIC50

Answered examples (5):
                             smiles_text  parameter_measured  measured_result
0          Oc1ccccc1/C=N/NC(=S)Nc1ccccc1               pIC50           < 3.30
1        S=C(N/N=C/c1cccs1)Nc1ccc(Cl)cc1               pIC50           < 3.30
2     Oc1ccc(/C=N/NC(=S)Nc2cccc(O)c2)cc1               pIC50             4.54
3     Oc1ccc(/C=N/NC(=S)Nc2ccc(O)cc2)cc1               pIC50             4.36
4  COc1cc(/C=N/NC(=S)Nc2ccc(Cl)cc2)ccc1O               pIC50           < 3.30

Query molecule follows.
Please supply the value of reported pIC50 for the item `Oc1ccccc1/C=N/NC(=S)Nc1ccc(Cl)cc1` < 3.30
